target: CYP2C9 (Homo sapiens, UniProt P11712)
Sequence (P11712 whole entry): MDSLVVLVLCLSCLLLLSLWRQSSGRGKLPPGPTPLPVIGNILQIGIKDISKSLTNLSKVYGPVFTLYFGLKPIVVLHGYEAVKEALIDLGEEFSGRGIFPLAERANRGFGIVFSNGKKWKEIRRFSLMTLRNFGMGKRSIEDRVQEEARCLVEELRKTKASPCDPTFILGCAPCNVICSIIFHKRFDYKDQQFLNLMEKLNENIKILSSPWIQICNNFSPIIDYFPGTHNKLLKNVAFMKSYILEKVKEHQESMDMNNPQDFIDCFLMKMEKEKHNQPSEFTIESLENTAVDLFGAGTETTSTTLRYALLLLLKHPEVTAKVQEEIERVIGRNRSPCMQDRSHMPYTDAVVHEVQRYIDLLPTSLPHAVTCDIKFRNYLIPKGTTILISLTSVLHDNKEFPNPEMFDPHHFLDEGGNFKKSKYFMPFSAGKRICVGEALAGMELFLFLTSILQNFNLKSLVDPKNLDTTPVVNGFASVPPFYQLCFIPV

Molecule	System	IC50
Oc1cccc(-c2nc(N3CCOCC3)c3oc4ncccc4c3n2)c1 [PI-103]	CYP2C9 (Homo sapiens, UniProt P11712)	1160 nM

====

target: UniProtKB P05181
Sequence (P05181 whole entry): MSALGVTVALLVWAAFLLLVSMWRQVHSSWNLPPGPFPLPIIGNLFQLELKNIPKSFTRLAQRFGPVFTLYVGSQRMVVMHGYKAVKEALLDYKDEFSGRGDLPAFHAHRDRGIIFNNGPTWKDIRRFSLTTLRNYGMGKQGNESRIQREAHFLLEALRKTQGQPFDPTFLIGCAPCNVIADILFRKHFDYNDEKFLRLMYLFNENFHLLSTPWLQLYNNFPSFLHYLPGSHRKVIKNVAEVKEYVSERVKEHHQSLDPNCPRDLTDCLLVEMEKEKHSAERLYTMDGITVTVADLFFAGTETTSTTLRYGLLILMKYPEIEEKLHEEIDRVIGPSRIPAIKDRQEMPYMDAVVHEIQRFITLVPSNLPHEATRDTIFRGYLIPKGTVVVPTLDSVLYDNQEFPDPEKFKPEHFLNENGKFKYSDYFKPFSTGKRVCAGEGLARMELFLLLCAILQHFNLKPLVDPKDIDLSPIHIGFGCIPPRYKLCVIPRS
pKi: −log10 of the molar value.
Assay metric: pKi

Compound	Observed measurement
Oc1cccc(-c2nc(N3CCOCC3)c3oc4ncccc4c3n2)c1 [PI-103]	6.60

====

Molecular target: CYP1A1 (Homo sapiens)
Sequence (P04798 1-512): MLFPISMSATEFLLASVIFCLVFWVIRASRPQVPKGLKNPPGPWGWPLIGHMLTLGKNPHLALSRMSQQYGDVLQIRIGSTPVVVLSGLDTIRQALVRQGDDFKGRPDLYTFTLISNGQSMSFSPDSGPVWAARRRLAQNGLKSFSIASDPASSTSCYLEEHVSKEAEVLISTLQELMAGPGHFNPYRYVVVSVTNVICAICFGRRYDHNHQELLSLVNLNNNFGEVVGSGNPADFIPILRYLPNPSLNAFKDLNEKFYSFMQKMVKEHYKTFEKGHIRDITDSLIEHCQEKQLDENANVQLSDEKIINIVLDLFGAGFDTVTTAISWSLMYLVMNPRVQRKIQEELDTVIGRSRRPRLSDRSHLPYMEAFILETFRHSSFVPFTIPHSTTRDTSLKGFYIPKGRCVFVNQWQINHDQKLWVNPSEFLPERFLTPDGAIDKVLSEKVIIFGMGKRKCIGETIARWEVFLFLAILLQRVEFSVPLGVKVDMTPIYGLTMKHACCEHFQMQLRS

Sample smiles	IC50 [µM]
Oc1cccc(-c2nc(N3CCOCC3)c3oc4ncccc4c3n2)c1	16.8

====

biological target: CYP2C19 (Homo sapiens)
Sequence (P33261 whole entry): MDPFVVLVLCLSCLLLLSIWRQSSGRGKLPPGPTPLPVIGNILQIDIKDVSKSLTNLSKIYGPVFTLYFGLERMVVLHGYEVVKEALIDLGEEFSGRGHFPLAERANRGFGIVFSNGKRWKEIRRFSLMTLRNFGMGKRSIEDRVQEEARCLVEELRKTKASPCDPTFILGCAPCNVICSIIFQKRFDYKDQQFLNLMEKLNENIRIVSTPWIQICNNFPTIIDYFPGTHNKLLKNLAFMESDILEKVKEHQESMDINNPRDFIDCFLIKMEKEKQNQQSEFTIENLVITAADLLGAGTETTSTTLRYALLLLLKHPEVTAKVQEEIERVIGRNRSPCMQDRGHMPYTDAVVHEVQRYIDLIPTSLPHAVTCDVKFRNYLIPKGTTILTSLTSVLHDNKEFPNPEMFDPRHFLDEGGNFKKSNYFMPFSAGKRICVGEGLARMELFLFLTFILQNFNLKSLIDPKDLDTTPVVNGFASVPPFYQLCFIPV
pKi: −log10 of the molar value.
Assay metric: pKi

Sample smiles	Observed measurement
Oc1cccc(-c2nc(N3CCOCC3)c3oc4ncccc4c3n2)c1	6.28

====

biological target: UGT1A7 (Homo sapiens, UniProt Q9HAW7)
Sequence (Q9HAW7 26-530): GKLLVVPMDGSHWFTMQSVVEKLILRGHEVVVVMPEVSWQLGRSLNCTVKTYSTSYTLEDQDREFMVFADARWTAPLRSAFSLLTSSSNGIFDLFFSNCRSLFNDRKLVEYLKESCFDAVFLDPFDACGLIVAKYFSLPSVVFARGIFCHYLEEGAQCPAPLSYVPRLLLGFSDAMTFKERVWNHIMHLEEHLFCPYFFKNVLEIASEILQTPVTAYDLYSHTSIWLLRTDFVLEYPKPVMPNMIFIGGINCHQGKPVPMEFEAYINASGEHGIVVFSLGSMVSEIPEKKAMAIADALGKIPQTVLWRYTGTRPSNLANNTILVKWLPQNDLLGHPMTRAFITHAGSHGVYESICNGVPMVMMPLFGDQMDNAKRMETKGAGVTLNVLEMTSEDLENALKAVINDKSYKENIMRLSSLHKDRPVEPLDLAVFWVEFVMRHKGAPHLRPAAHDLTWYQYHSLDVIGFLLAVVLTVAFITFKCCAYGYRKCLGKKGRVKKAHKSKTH
pKi: −log10 of the molar value.

Compound	System	pKi
Oc1cccc(-c2nc(N3CCOCC3)c3oc4ncccc4c3n2)c1 [PI-103]	UGT1A7 (Homo sapiens, UniProt Q9HAW7)	5.25
